Test system: Kasumi-1
assay-notes: CellTox Green cytotoxicity fluorescence relative to DMSO vehicle (fold of vehicle RFU); higher = more cell death (loss of membrane integrity), active = 2 or more
condition-label: 0.01 µM; 24 h
Where a name gives a salt, the structure may show the parent alone.
CellTox Green cytotoxicity fluorescence by entry:

compound	CellTox Green cytotoxicity fluorescence
CC1(C)CCC(c2ccc(Cl)cc2)=C(CN2CCN(c3ccc(C(=O)NS(=O)(=O)c4ccc(N[C@H](CCN5CCOCC5)CSc5ccccc5)c(S(=O)(=O)C(F)(F)F)c4)cc3)CC2)C1	1.04
CCS(=O)(=O)N1CCN(c2ccc(Nc3ncc(C(N)=O)c(NC4CC4)n3)cc2)CC1	0.959
COc1nc(OCc2cccc(-c3ccccc3)c2C)ccc1CNCCNC(C)=O	1
CN1CCN(CCCNc2ncc(Cl)c(-c3cc4c(C(=O)NC5CC5)cccc4s3)n2)CC1	0.943
COc1c/c(=C2\C=c3ccccc3=N2)[nH]/c1=C\c1[nH]c(C)cc1C [Obatoclax Mesylate]	0.975
CN(C)CCCCC(=O)Nc1ccc(NC(=S)NC(=O)c2ccc(C(C)(C)C)cc2)cc1	0.99
C=CC(=O)N1CC(=Cc2ccc([N+](=O)[O-])cc2)C(=O)C(=Cc2ccc([N+](=O)[O-])cc2)C1	1.01
CN[C@@H](C)C(=O)N[C@H](C(=O)N1CCC[C@H]1C(=O)Nc1snnc1-c1ccccc1)C1CCCCC1	0.983
CC(=O)O/N=C1/C(c2c(O)[nH]c3cc(Br)ccc23)=Nc2ccccc21	1.05
NS(=O)(=O)C#Cc1ccccc1	0.994
Cc1nn(C)c(COc2ccc(N3CCN(S(=O)(=O)N(C)C)CC3)cc2)c1-c1cccc2c(CCCOc3cccc4ccccc34)c(C(=O)O)n(CCN3CCOCC3)c12	0.998

###

Test system: Kasumi-1
assay-notes: CellTox Green cytotoxicity fluorescence relative to DMSO vehicle (fold of vehicle RFU); higher = more cell death (loss of membrane integrity), active = 2 or more
condition-label: 0.01 µM; 72 h
Counter-ions that a name gives are not always drawn.

molecule	tested-target	CellTox Green cytotoxicity fluorescence
CC[C@H](NC(=O)[C@H](C)NC)C(=O)N1C[C@@H](O)C[C@H]1Cc1c(-c2[nH]c3cc(F)ccc3c2C[C@@H]2C[C@H](O)CN2C(=O)[C@H](CC)NC(=O)[C@H](C)NC)[nH]c2cc(F)ccc12 [Birinapant]	Kasumi-1	1.05
CCOc1cc(C(C)(C)C)ccc1C1=N[C@@](C)(c2ccc(Cl)cc2)[C@@](C)(c2ccc(Cl)cc2)N1C(=O)N1CCN(CCCS(C)(=O)=O)CC1	Kasumi-1	1.01
O=C(O)CSc1cc(NS(=O)(=O)c2ccc(Br)cc2)c2ccccc2c1O	Kasumi-1	1.01
Cc1cccc(CC(=O)N2CCc3c2ccc(-c2cn(C)c4ncnc(N)c24)c3F)n1	Kasumi-1	1.02
Cn1cc(-c2ccc3c(c2)CCN3C(=O)Cc2cccc(C(F)(F)F)c2)c2c(N)ncnc21	Kasumi-1	1.02
CC(C)CC(NC(=O)C(Cc1ccccc1)CC(O)C(Cc1ccccc1)NC(=O)OC(C)(C)C)C(=O)NC(Cc1ccccc1)C(N)=O (stereo unspecified)	Kasumi-1	0.962
CC1(C)CCC(c2ccc(Cl)cc2)=C(CN2CCN(c3ccc(C(=O)NS(=O)(=O)c4ccc(N[C@H](CCN5CCOCC5)CSc5ccccc5)c(S(=O)(=O)C(F)(F)F)c4)cc3)CC2)C1 [Navitoclax]	Kasumi-1	1.05
COc1cc(C(=O)O)ccc1NC(=O)[C@@H]1N[C@@H](CC(C)(C)C)[C@](C#N)(c2ccc(Cl)cc2F)[C@H]1c1cccc(Cl)c1F [Idasanutlin]	Kasumi-1	0.962
COCC[n+]1c2c(n(Cc3cnccn3)c1C)C(=O)c1ccccc1C2=O [Sepantronium Bromide]	Kasumi-1	1.11
C=CC(=O)N1CC(=Cc2ccc([N+](=O)[O-])cc2)C(=O)C(=Cc2ccc([N+](=O)[O-])cc2)C1	Kasumi-1	0.951
O=C1C(=O)N(Cc2ccc(Cl)c(Cl)c2)c2ccccc21 [Apoptosis Activator 2]	Kasumi-1	1.01
O=C(NS(=O)(=O)c1ccc(Br)s1)c1ccc(Cl)cc1Cl [Tasisulam]	Kasumi-1	1.01
C[C@H]1Oc2cc(cnc2N)-c2c(nn(C)c2C#N)CN(C)C(=O)c2ccc(F)cc21	Kasumi-1	1.01
C=CC(=O)N1CCC(Oc2cc3c(Nc4ccc(Cl)c(Cl)c4F)ncnc3cc2OC)CC1 [Poziotinib]	Kasumi-1	0.982
CCOC(=O)C1=C(N)Oc2ccc(Br)cc2C1C(C#N)C(=O)OCC (stereo unspecified)	Kasumi-1	0.927
CCCCNc1ncc2c(-c3ccc(CN4CCN(C)CC4)cc3)cn([C@H]3CC[C@H](O)CC3)c2n1	Kasumi-1	1.02
C=CC(=O)N1CCN(C(=O)CNc2cc(I)c(Cl)cc2O)CC1 [K-Ras(G12C) inhibitor 12]	Kasumi-1	1
COc1cccc(-n2c(=O)[nH]c3cc(Cl)n(-c4ccc(-c5cccc(OC)c5O)cc4)c3c2=O)c1	Kasumi-1	1.13
COc1c/c(=C2\C=c3ccccc3=N2)[nH]/c1=C\c1[nH]c(C)cc1C [Obatoclax Mesylate]	Kasumi-1	0.921
CN1CCN(CCCNc2ncc(Cl)c(-c3cc4c(C(=O)NC5CC5)cccc4s3)n2)CC1	Kasumi-1	0.891
CCOC(=O)c1[nH]c2cc(Cl)ccc2c1C(C(=O)NC(C)(C)C)N(C=O)Cc1ccc(Cl)cc1 (stereo unspecified)	Kasumi-1	1
CCO[C@@H]1OC(=O)C[C@@H]1NC(=O)[C@@H]1CCCN1C(=O)[C@@H](NC(=O)c1ccc(N)c(Cl)c1)C(C)(C)C	Kasumi-1	0.948
CN[C@@H](C)C(=O)N[C@H](C(=O)N1CCC[C@H]1c1nc(C(=O)c2ccc(F)cc2)cs1)C1CCCCC1	Kasumi-1	0.955
Nc1ccccc1NC(=O)c1cnccn1	Kasumi-1	0.904
COc1ccc(C2=N[C@@H](c3ccc(Cl)cc3)[C@@H](c3ccc(Cl)cc3)N2C(=O)N2CCNC(=O)C2)c(OC(C)C)c1 [Nutlin-3]	Kasumi-1	0.998
O=C1CCC(N2C(=O)c3ccccc3C2=O)C(=O)N1 (stereo unspecified) [Thalidomide]	Kasumi-1	0.95
COc1cc(C(=O)N2CCC(N3CCN(C)CC3)CC2)ccc1Nc1ncc2c(n1)N(C)c1ccccc1C(=O)N2C	Kasumi-1	1.01
N#CC(=Cc1ccc(-c2cc(Cl)ccc2Cl)o1)C(=O)Nc1cccc2ncccc12	Kasumi-1	0.958
Cc1nc(Nc2ncc(C(=O)Nc3c(C)cccc3Cl)s2)cc(N2CCN(CCO)CC2)n1 [Dasatinib Monohydrate]	Kasumi-1	1.13
Nc1nc(F)nc2c1ncn2[C@@H]1O[C@H](CO)[C@@H](O)[C@@H]1O [Fludarabine]	Kasumi-1	0.986
CC1(C)CC[C@]2(NC(=O)C(C)(F)F)CC[C@]3(C)[C@H](C(=O)C=C4[C@@]5(C)C=C(C#N)C(=O)C(C)(C)[C@@H]5CC[C@]43C)[C@@H]2C1 [Omaveloxolone]	Kasumi-1	0.898

###

Test system: CMK
assay-notes: CellTox Green cytotoxicity fluorescence relative to DMSO vehicle (fold of vehicle RFU); higher = more cell death (loss of membrane integrity), active = 2 or more
condition-label: 0.01 µM; 48 h
Counter-ions that a name gives are not always drawn.

compound	CellTox Green cytotoxicity fluorescence
CC(=O)N1c2ccc(-c3ccc(C(=O)O)cc3)cc2[C@H](Nc2ccc(Cl)cc2)C[C@@H]1C	1.1
COc1c/c(=C2\C=c3ccccc3=N2)[nH]/c1=C\c1[nH]c(C)cc1C [Obatoclax Mesylate]	0.907
CC(C)[C@H](CO)Nc1nc(Nc2cccc(Cl)c2)c2ncn(C(C)C)c2n1 [Purvalanol A]	1
COc1cccc(-n2c(=O)[nH]c3cc(Cl)n(-c4ccc(-c5cccc(OC)c5O)cc4)c3c2=O)c1	0.943
CC(C)(C)C[C@@H]1N[C@@H](C(=O)N[C@H]2CC[C@H](O)CC2)[C@H](c2cccc(Cl)c2F)[C@]12C(=O)Nc1cc(Cl)ccc12	1.03
Cc1cccc(CC(=O)N2CCc3c2ccc(-c2cn(C)c4ncnc(N)c24)c3F)n1	0.975
O=C1C(=O)N(Cc2ccc(Cl)c(Cl)c2)c2ccccc21 [Apoptosis Activator 2]	1.02
Cc1c(C(=O)Nc2ccc(Oc3ccnc4[nH]cc(-c5ccccc5)c34)c(F)c2)c(=O)n(-c2ccc(F)cc2)n1C	1.02
CCCCC(C=O)NC(=O)C(CC(C)C)NC(=O)C(CC(C)C)NC(C)=O (stereo not drawn)	0.967
CCS(=O)(=O)N1CCN(c2ccc(Nc3ncc(C(N)=O)c(NC4CC4)n3)cc2)CC1 [Cerdulatinib]	0.986
CN1CCN(Cc2ccc(Nc3ncc(Cl)c(Nc4ccccc4S(=O)(=O)N(C)C)n3)cc2)CC1	0.972
COC(=O)[C@H](CCSC)NC(=O)c1ccc(NC[C@@H](N)CS)cc1-c1ccccc1	0.924
CN1CCN(CCCNc2ncc(Cl)c(-c3cc4c(C(=O)NC5CC5)cccc4s3)n2)CC1	0.985
C/C(=N\NC(=O)c1cccc(S(=O)(=O)N2CCOCC2)c1)c1cc(Cl)ccc1O	0.991
O=C(O)CSc1cc(NS(=O)(=O)c2ccc(Br)cc2)c2ccccc2c1O	0.966
N#CC(=Cc1ccc(-c2cc(Cl)ccc2Cl)o1)C(=O)Nc1cccc2ncccc12	0.938
CCOC(=O)C1=C(N)Oc2ccc(Br)cc2C1C(C#N)C(=O)OCC (stereo not drawn)	0.915
COc1nc(-c2ccc3c(c2)OCO3)n(-c2ccc(NC(=O)CSc3ccccc3)cc2)n1 [SecinH3]	1.04
